Test system: TGFβ signal
methodDescription: TGFβ signal inhibitory activity, (SBE)4-Luc reporter in A549 cells (Test Examples 1A and 1B)
Assay type: cell-based, human
conditionNotes: Homo sapiens, A549; test compound 3 µM; TGFβ-1 2 ng/ml, 4 hr; Table 1A; read-out: TGFβ inhibition rate, %
# inhibition at 3 µM values compiled below
The figure you give is taken to be in %; do not add the unit.

Cc1cc(Oc2ccnc3ccccc23)c(-c2ncccn2)nc1C [Compound 49] | 97

// query I am curious: what inhibition at 3 µM value has been reported for Cc1ccc(-c2ccc3nccc(Oc4cc(C)c(C)nc4-c4ccccn4)c3c2)s1 [Compound 165] ?
// result 90

// query # repeat for CCc1ccc(Oc2ccnc3cc(C(N)=O)c(OCc4ccccc4)cc23)c(-c2ncccn2)n1 [Compound 193]
// result 80

// query # repeat for Cc1cc(Oc2ccnc3cc(-c4cccc(O)c4)ccc23)c(-c2ccccn2)nc1C [Compound 106]
// result 99

// query # repeat for Cc1cc(Oc2ccnc3ccc(-c4cccc(O)c4)cc23)c(-c2ccccn2)nc1C [Compound 11]
// result 100

The reported measurements were obtained from patent EP1724268A1.
